# TARGET: T1, EPEC Tir (enteropathogenic E. coli (EPEC), UniProt B7UM99)
# T1 construct: also called GST-tagged EPEC Tir; recombinant his-tagged Tir
# T1 sequence (B7UM99 whole entry): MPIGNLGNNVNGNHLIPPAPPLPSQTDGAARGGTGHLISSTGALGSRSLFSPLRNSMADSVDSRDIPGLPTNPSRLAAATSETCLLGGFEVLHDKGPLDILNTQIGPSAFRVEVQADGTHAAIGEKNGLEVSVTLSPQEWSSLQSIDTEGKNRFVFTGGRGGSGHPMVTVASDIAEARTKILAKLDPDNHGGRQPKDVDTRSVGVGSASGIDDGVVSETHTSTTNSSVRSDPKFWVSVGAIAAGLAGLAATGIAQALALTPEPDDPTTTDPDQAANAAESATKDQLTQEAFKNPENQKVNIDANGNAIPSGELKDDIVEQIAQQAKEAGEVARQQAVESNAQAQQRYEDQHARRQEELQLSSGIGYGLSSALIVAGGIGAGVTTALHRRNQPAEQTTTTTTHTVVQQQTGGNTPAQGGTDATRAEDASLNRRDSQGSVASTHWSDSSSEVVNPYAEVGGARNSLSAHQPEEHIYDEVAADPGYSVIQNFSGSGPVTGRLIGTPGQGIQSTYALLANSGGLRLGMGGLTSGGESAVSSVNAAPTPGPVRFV
# TEST_SUMMARY: ELISA; capture dilution ELISA; plate coated with 5 μg/mL of a non-competing VHH (no thioredoxin, no E-tag), antigen at 1 μg/mL captured for 1 h at 37°C (S1 Fig c-d: EPEC Tir, REPEC Tir); thioredoxin/VHH/E-tag from 125 nM in 1:5 serial dilutions; HRP anti-E-tag; EC50 estimates (apparent affinity); trace = EC50 >125 nM
# MEASUREMENT_SETUP: both partners purified
Let's look at some binders and their measured pEC50.
Recall that pEC50 is obtained by taking minus log10 of the concentration measured in molar.

Example cases with answers are listed next.
BINDER	MEASURED_VALUE
JVB-G4 (VHH, also called αTir-2; JVG-2 (vector name); not shown: thioredoxin, N-terminal, kept; E-tag, C-terminal, kept) VHH: SGGGLVEAGGSLRLSCSASGRASGDGHLGWFGDGALAWFRQAPGKEREYVAAVGHSGTDTYYSDSVKGRFTISRDNAKSMGYLQMDNLRPDDTGIYYCALDLHLGQPGYDYWGQGTQVIVSS	10.00
JVA-G1 (VHH, also called αTir-14; JVF-14 (vector name); not shown: thioredoxin, N-terminal, kept; E-tag, C-terminal, kept) VHH: SGGGLAQAGGSLKLSCVASGFTFADYAIGWFRQAPGKEREGVACISNSVGSTYYSDSVKGRVTISSDNVKKTVYLQMNSLKPEDTAFYYCALIDHGMNCRNSNGIHYWGKGTLVTVSS	9.70
JVA-C9 (VHH, also called αTir-9; JVF-3 (vector name); not shown: thioredoxin, N-terminal, kept; E-tag, C-terminal, kept) VHH: TGGGLVQAGGSLRLSCVDSGRTFGDNAMGWFRQAPGKEREYVAAIGYNGDSTYYLNSVKGRFTISRDNAKNTLYLQMNSLQLEDTGVYICAAKTRVTTKEYDFWGQGTQVTVSS	8.30
JVB-G8 (VHH, also called αTir-3; JVG-3 (vector name); not shown: thioredoxin, N-terminal, kept; E-tag, C-terminal, kept) VHH: TGGGLVQAGGSLRLSCVASGFTFNDYVLTWFRQAPGKGREGVASISPAFGNTFYADSVKGRFTITSDSAKKQVCLQMNNLKSEDTAVYFCAADPTVNFGPVLRAENYRHWGQGTQVTVSS	9.70
JVC-E5 (VHH, also called αTir-6; JVI-3 (vector name); not shown: thioredoxin, N-terminal, kept; E-tag, C-terminal, kept) VHH: TGGGTVQAGSSLRLSCTASGFTFTDAAMGWFRQAPGKEREFVAAINWDSANKYYADSVKGRFTISRDNAKNTVYLEMTALKPEDTADYICAGDAKLGHVATSDVWRFWGQGTQVTVSS	9.70

Exercise: Consider the binder JVB-C6 (VHH, also called αTir-1; JVG-1 (vector name); not shown: thioredoxin, N-terminal, kept; E-tag, C-terminal, kept) VHH: TGGGLVQPGGSLTLSCAASGFSITENAMGWARQVPGKGLEWVSLVYSGGNTYYAESIEGRFTISRDNAKNTVYLRMTSLKPEDTGVYYCAAREAVRVAGPPADVWGQGTQVTVSS and give its measured pEC50.
Key: 7.30

Exercise: Look up pEC50: JVA-F6 (VHH, also called αTir-11; JVF-7 (vector name); not shown: thioredoxin, N-terminal, kept; E-tag, C-terminal, kept) VHH: SGGGLVQAGDSLRLSCVTSGRSFSEAAMGWFRQAPGKERELMTSIGWNGDRTYYADSVKGRFTISRDNAKNTVYLQMNGLTPNDTAVYYCAAAVRASKGYEYWGQGTQVTVSS
Key: 7.60

Exercise: Need pEC50 of JVA-D4 (VHH, also called αTir-10; JVF-4 (vector name); not shown: thioredoxin, N-terminal, kept; E-tag, C-terminal, kept) VHH: TGGGLAQAGGSLRLSCATSGFTFADYAIGWFRQAPGKEREGVACISTSDNGQYSADSVKGRFTISKDNAKKTVYLQMNSLKPDDTAIYYCHLIDVGSNCRKGKDDGFWGQGTQVTVSS , thanks.
Key: 9.30
